# Lookup of reported Max MFI keyed by entry
Target: T1, human CDH6 with EC5 removed, on HEK293T cells (HEK293T-hCDH6-EC5 deletion) (human, UniProt P55285 54-790)
T1 construct: Signal peptide not removed here
T1 sequence: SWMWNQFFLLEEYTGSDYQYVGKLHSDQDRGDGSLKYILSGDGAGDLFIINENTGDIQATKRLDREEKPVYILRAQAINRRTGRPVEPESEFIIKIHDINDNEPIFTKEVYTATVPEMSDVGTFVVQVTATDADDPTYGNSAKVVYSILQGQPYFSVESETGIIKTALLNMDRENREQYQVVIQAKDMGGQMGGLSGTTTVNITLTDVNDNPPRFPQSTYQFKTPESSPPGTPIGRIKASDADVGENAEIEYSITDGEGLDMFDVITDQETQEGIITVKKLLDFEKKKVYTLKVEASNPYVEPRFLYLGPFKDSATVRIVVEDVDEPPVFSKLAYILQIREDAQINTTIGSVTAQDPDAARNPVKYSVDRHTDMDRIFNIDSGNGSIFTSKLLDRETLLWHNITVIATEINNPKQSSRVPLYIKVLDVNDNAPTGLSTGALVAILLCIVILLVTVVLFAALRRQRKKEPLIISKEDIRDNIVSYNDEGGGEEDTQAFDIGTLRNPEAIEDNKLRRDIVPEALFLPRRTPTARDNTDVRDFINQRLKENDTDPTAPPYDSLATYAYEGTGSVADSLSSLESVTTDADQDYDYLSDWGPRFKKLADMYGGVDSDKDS
Experiment: FACS, HEK293T-hCDH6-EC5 deletion cells
Give a bare numeral; the unit MFI is implied.

>>> value_measured("CHI-CDH6-4 (antibody, human IgG1, kappa, V domains shown, also called CH1-CDH6-4; chimeric antibody of murine CDH6-4) VH: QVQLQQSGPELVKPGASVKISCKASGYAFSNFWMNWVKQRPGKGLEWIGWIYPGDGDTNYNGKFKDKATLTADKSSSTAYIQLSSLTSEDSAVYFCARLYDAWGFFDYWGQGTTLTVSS VL: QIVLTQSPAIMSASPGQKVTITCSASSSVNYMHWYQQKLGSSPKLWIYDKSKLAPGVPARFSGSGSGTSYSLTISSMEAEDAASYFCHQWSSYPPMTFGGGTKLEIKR")
6540

Next up:
Quick one: Max MFI of CHI-CDH6-12 (antibody, human IgG1, kappa, V domains shown, also called CH1-CDH6-12; chimeric antibody of murine CDH6-12) VH: EVNLVESGGGLVQPGDSLTLSCSASGFTFTDYYMSWVRQFPGKALEWLALIRNKANSYTTEYSASVKGRFTISRDNSQSILYLQMNALRAEDSATYYCARDSYYSHDGFAYWGQGTLVTVSA VL: DIVLTQSPASLAVSLGQRATISCRASKSVSTSSYTYMHWYQQKPGQPPKLLIKFASYLESGVPARFSGSGSGTDFTLNIHPVEEEDAATYYCQHSREFPFTFGTGTKLEIKR ?
4490
